# TESTED_TARGET: Melanocortin receptor 4 (Homo sapiens)
# Sequence (P32245 whole entry): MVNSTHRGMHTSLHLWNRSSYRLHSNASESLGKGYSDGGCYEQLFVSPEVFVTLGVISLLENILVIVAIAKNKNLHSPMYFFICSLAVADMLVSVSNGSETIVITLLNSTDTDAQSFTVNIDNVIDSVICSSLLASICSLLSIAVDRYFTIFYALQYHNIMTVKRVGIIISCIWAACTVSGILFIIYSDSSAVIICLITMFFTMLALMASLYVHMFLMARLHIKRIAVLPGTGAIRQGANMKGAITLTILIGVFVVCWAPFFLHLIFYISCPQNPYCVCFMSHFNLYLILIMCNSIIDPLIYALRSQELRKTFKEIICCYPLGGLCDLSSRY
# TEST_METHOD_NOTES: Transactivation Assay: In the presence of an activator (agonist), the melanocortin receptor will activate the cAMP pathway which, via the CRE-Luc vector, will result in the synthesis of luciferase. After the addition of a lysis buffer containing a luminescent substrate for luciferase, it will be possible to measure the luminescence proportional to the degree of activation or of inhibition of the receptor. The products are solubilized at 10 mM in DMSO. They are tested in the form of dose-response at a final DMSO concentration of 0.1%. The range comprising 10 points and one zero begins at 10 μM with 4-fold dilutions. For testing agonists, the products are tested alone. For determining the behaviour of antagonists, the products of interest are tested in the presence of 1 nM NDP-MSH (reference agonist). The cells are seeded at a rate of 5000 cells per well (384 well plate) in serum-free DMEM medium, and incubated overnight at 37° C., 5% CO2.The products and the reference ligand (NDP-MSH) are added the following day, and the plates are again incubated for 6 h at 37° C., 5% CO2. After the addition of lysis buffer containing luciferin, the plates are read on a Top-Count instrument. The results are standardized as % activity using the 100% (cells+NDP-MSH at 10 nM) and 0% (cells alone) controls. An EC50 is calculated for each product using the XLFit software. The results are given in nM.
MEASURED_PARAMETER: EC50 (nM)
Expressed in nM, but write only the number.

Identify the reported EC50 for the following entry. CCCCCC1(c2ccccc2OC)CN(C(=O)[C@@H](Cc2ccc(OC)cc2)NC(=O)CCc2c[nH]cn2)C1 30

Data provenance is ChEMBL document CHEMBL5726197.
